FYI, the data here is from the supplement of paper PMC9170038.

Test system: MS2 coat protein
Assay: apparent KD of MS2 coat protein; designed switch direction (-1 OFF switch, 1 ON switch): 1; higher = weaker reporter binding
Details: Eterna round: R95; input ligand: microRNA oligo, concentration not stated
Measured Parameter: apparent KD of MS2 coat protein (nM)
Your answer should be a plain number; it is taken to be in nM.

Find the measured apparent KD of MS2 coat protein: item GAGUUACAUGAGGAUCACCCAUGUGGUUGUGGAUAAGGAUAUAUGGUAGGAGGAGGAAUGAUAGAAGGUAUUAGGG [JR_SS1_Sub065] (puzzle: Same State 1) , target or system MS2 coat protein.
52.9

Also GGGCCAGCUUUUGCUGGGCCUUCGCUUGCACAUGAGGAUCACCCAUGUCGUGUACACGCUUCCUGCCCGUCUUUUUU [Photon Torp-18] (puzzle: Sensor for hsa-mir-208a) ?
13.6

Also UAAAAACAUGAGGAUCACCCAUGUCAAAAGACAUGAGGAUAUGUACAGACUUCGGUCUGUACAGAAGGCAUGAAAA [salish99_ss1_r3_094] (puzzle: Same State 1) ?
503

Also AAUAUACAUGAGGAUCACCCAUGUUAGUAAAUGACAGGAUAUGGAAUAAAUAAAUAAUAACCAGAAGGGUCUAAUA [JMF's solution 2] (puzzle: Same State 1) ?
24.9

Also GACAAUCUAUCUGAGGAUAUCAUGAAUAAAACAUGAGGAUCACCCAUGUGCAGGAGAACUGCAAAUGAGAAGGCAGAUAGAUUGG [Mat - Same State 2 - Mod - D10] (puzzle: Same State 2) ?
37.2

Also UGUCCAGCCUGAGCUGGACAAAAGCAUGUACAUGAGGAUCACCCAUGUUCAUGUACAAGCUUUUUGCUCGUCUUACC [salish99_208a_r3_083] (puzzle: Sensor for hsa-mir-208a) ?
15.9

Also GUUAUACAUGAGGAUCACCCAUGUCAAUGUAGUCGAGGAUAUGGGUUGCUAUGAGGCGUACUAGAAGGCGAGGAGU [JL-ss1-3.17 ViennaUCT mod] (puzzle: Same State 1) ?
98.8

Also CUAACAACAGGUUGCAGUGCUCGUCUCUAACAUGAGGAUCACCCAUGUAAUAGCCCGGUGGAAGCGCUCGGGUCACC [Tearor] (puzzle: Sensor for hsa-mir-208a) ?
34.5

Also AUUUAACAAGCUUUUUGCUCGUCUUAUAAACAUGAGGAUCACCCAUGUAAUAGCGUGAGAGUAAUUUUUUAAAUAAU [JMF 96] (puzzle: Sensor for hsa-mir-208a) ?
34.3

Also GGAGGACAUGAGGAUCACCCAUGUGGAUGAUCGCUAGGAUAUGCGUAAAGGAGGAGUGGUGCAGAAGGAGUGGGAU [JR_SS1_Sub050] (puzzle: Same State 1) ?
261

Also UCUUGGUUUUUGCUCGUUUUUUGUGUUGAACAUGAGGAUCACCCAUGUAUUGUACGGUCCGAUUUAAUAGUGGUCCG [JMF 19] (puzzle: Sensor for hsa-mir-208a) ?
14.8
